# TARGET UNDER TEST: PRMT5 (Homo sapiens, UniProt O14744)
# Construct: purchased Viva (custom protein)
# Sequence (O14744 whole entry): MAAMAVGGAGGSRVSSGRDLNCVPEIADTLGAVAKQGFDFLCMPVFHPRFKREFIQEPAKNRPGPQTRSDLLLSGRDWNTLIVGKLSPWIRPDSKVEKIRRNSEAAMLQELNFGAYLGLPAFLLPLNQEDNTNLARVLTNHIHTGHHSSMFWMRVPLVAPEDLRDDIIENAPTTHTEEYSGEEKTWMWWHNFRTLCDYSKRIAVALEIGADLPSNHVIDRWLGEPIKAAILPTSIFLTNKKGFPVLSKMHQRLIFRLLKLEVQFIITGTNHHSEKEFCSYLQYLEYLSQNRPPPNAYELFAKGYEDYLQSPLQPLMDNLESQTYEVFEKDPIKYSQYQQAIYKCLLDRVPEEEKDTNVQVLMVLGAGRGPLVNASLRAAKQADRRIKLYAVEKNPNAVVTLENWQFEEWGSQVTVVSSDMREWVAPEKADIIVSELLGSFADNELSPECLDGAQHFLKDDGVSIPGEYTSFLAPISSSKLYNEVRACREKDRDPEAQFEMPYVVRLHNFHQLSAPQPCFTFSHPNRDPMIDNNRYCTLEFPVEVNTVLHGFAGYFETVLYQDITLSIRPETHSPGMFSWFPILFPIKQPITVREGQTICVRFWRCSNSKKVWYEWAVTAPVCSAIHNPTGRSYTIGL
# Sequence (Q9BQA1 whole entry partner): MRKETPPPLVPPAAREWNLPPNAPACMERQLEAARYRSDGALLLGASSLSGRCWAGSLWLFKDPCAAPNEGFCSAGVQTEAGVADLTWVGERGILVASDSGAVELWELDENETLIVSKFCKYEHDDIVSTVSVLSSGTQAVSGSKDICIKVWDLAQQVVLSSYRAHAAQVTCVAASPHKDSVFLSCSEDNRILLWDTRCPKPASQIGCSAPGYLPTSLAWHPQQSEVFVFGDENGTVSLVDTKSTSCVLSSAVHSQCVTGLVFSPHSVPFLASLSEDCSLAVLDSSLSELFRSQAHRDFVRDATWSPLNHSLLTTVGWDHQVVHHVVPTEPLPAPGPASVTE
# PROTOCOL DETAILS: PRMT5 biochemical IC50 assay with MTA as cofactor
# CONDITIONS USED: PRMT5, MTA as cofactor; read-out: MTA IC50
READOUT: IC50

>>> observed("Cc1c(NC(=O)C(=O)N2C[C@@H](C)CC[C@@H]2c2ccccc2)cnc(N)c1C (single isomer, unassigned)")
"< 0.05 µM"
>>> observed("Cc1cc(NC(=O)C(=O)N2C[C@@H](C)CC[C@@H]2c2cnc3[nH]ncc3c2)cnc1N (single isomer, unassigned)")
"> 0.5 µM"
>>> observed("Cc1cc(NC(=O)C(=O)N2C[C@@H](C)CC[C@@H]2c2ccc3sc(C4CCN(CCF)CC4)nc3c2)cnc1N")
"< 0.05 µM"
>>> observed("C[C@H]1CC[C@H](c2cc(F)c(F)c(F)c2)N(C(=O)C(=O)Nc2cncc(C(N)=O)c2)C1 (single isomer, unassigned)")
"< 0.05 µM"
>>> observed("Cc1cc(NC(=O)C(=O)N2C[C@@H](C)C(F)(F)C[C@@H]2c2ccc(F)cc2)cnc1N (single isomer, unassigned)")
"< 0.05 µM"
>>> observed("CNc1cccc([C@H]2CCCCN2C(=O)C(=O)Nc2cncc(C(N)=O)c2)c1 (single isomer, unassigned)")
"0.05 to 0.5 µM"
>>> observed("NC(=O)c1cncc(NC(=O)C(=O)N2C[C@H]3CC[C@H](C3)[C@H]2c2ccccc2)c1 (single isomer, unassigned)")
"> 0.5 µM"
>>> observed("C[C@@H]1CC[C@@H](c2cc[nH]n2)N(C(=O)C(=O)Nc2cncc(C(N)=O)c2)C1 (single isomer, unassigned)")
"> 0.5 µM"
>>> observed("C[C@H]1CC[C@H](c2ccc(C(N)=O)s2)N(C(=O)C(=O)Nc2cncc(C(N)=O)c2)C1 (single isomer, unassigned)")
"> 0.5 µM"
>>> observed("C[C@H]1CC[C@H](c2ccc3c(c2)C[C@@H](C)O3)N(C(=O)C(=O)Nc2cncc(C(N)=O)c2)C1 (single isomer, unassigned)")
"> 0.5 µM"
>>> observed("C[C@@H]1CC[C@@H](c2ccc(Cl)c(Cl)c2)N(C(=O)C(=O)Nc2cncc(C(N)=O)c2)C1 (racemic) [Compound 243]")
"< 0.05 µM"
>>> observed("COc1ncc(NC(=O)C(=O)N2C[C@@H](C)CC[C@@H]2c2ccc3sc(N)nc3c2)cc1C(N)=O (racemic)")
"0.05 to 0.5 µM"

###

# TARGET UNDER TEST: PRMT5 (Homo sapiens, UniProt O14744)
# Construct: purchased Viva (custom protein)
# PROTOCOL DETAILS: PRMT5 biochemical IC50 assay with MTA as cofactor
# CONDITIONS USED: PRMT5, MTA as cofactor; read-out: MTA IC50
// reported IC50 for each item listed
READOUT: IC50

>>> observed("C[C@@H]1CC[C@@H](c2ccc(-c3cncs3)cc2)N(C(=O)C(=O)Nc2cncc(C(N)=O)c2)C1 (single isomer, unassigned)")
"> 500 nM"
>>> observed("CCc1cc(NC(=O)C(=O)N2C[C@@H](C)CC[C@@H]2c2ccc(N3CCN(C)CC3)c(Cl)c2)cnc1N (racemic)")
"50 to 500 nM"
>>> observed("Cc1cc(NC(=O)C(=O)N2CCC(C(=O)C(C)C)C[C@H]2c2ccc3c(c2)CCC(=O)N3)cnc1N (mixture of isomers)")
"50 to 500 nM"
>>> observed("COc1ncc(NC(=O)C(=O)N2C[C@@H](C)CC[C@@H]2c2ccc3scnc3c2)cc1C(N)=O (single isomer, unassigned)")
"< 50 nM"
>>> observed("Cc1cc(NC(=O)C(=O)N2CCCCC2C2CCCC2)cnc1N (stereo not shown)")
"50 to 500 nM"
>>> observed("C[C@@H]1CC[C@@H]([C@H]2CCC[C@H](O)C2)N(C(=O)C(=O)Nc2cncc(C(N)=O)c2)C1 (single isomer, unassigned)")
"> 500 nM"
>>> observed("COc1ncc(NC(=O)C(=O)N2C[C@@H](C)CC[C@@H]2c2ccc3c(c2)C(=O)NC3)cc1C(N)=O (racemic)")
"< 50 nM"
>>> observed("Cc1cc(NC(=O)C(=O)N2C[C@H](C)CC[C@H]2c2ccc(S(C)(=O)=O)cc2)cnc1C (racemic)")
"50 to 500 nM"
>>> observed("CCc1cc(NC(=O)C(=O)N2C[C@@H](C)CC[C@@H]2c2ccc3sc([C@H]4CN(C)CCO4)nc3c2)cnc1N [Compound 1275]")
"< 50 nM"
>>> observed("CO[C@@H]1C[C@@H](c2ccc3scnc3c2)N(C(=O)C(=O)Nc2cncc(C(N)=O)c2)C[C@@H]1C (single isomer, unassigned)")
"< 50 nM"
>>> observed("COc1ncc(NC(=O)C(=O)N2C[C@@H](C)CC[C@@H]2c2cccc3[nH]ncc23)cc1C(N)=O (single isomer, unassigned)")
"< 50 nM"
>>> observed("CNc1nc2cc([C@@H]3CC[C@@H](C)CN3C(=O)C(=O)Nc3cnc(OC)c(C(N)=O)c3)ccc2s1 (single isomer, unassigned)")
"> 500 nM"
>>> observed("CCc1cc(NC(=O)C(=O)N2C[C@@H](C)CC[C@@H]2c2ccc3[nH]c(=O)ccc3c2)cnc1N (single isomer, unassigned)")
"< 50 nM"

###

# Tested on: HAP1 MTAP-deleted cell line
# PROTOCOL DETAILS: Viability assay, MTAP-deleted cell line
# Format: cell-based
# CONDITIONS USED: Homo sapiens, HAP1, read-out: HAP1 MTAP deleted viability
// reported IC50 for each item listed
READOUT: IC50

>>> observed("CCc1cc(NC(=O)C(=O)N2C[C@@H](C)CC[C@@H]2c2ccc3sc(C4(C)CCN(C)CC4)nc3c2)cnc1N")
"< 1000 nM"
>>> observed("COc1ncc(NC(=O)C(=O)N2C[C@H](C)CC[C@@H]2c2ccccc2)cc1C(N)=O (single isomer, unassigned)")
"> 10000 nM"
>>> observed("Cc1cncc(NC(=O)C(=O)N2[C@@H](c3ccccc3)CC[C@@H](C)[C@H]2C)c1 (single isomer, unassigned)")
"> 10000 nM"
>>> observed("CCc1cc(NC(=O)C(=O)N2C[C@@H](C)CC[C@@H]2c2ccc3sc(C4(OC)CCN(C)CC4)nc3c2)cnc1N")
"< 1000 nM"
>>> observed("Cc1cc(NC(=O)C(=O)N2CCCC[C@@H]2c2ccccc2)cnc1C (single isomer, unassigned)")
"> 10000 nM"
>>> observed("C[C@H]1CC[C@H](c2ccc3scnc3c2)N(C(=O)C(=O)Nc2cnc(N)c(C3CC3)c2)C1")
"< 1000 nM"
>>> observed("Cc1cc(NC(=O)C(=O)N2C[C@H](C)CC[C@H]2c2ccc3sc(C4CCN(C)CC4)nc3c2)cnc1N (single isomer, unassigned)")
"< 1000 nM"
>>> observed("COc1ncc(NC(=O)C(=O)N2C[C@H](C)CC[C@H]2c2ccccc2)cc1C(N)=O (single isomer, unassigned)")
"< 1000 nM"
>>> observed("Cc1cc(NC(=O)C(=O)N2C[C@@H](C)CC[C@@H]2c2ccc3c(c2)CC(=O)N3)cnc1N (single isomer, unassigned)")
"< 1000 nM"
>>> observed("C[C@H]1CC[C@H](c2ccc(C(F)F)cc2)N(C(=O)C(=O)Nc2cncc(C(N)=O)c2)C1 (single isomer, unassigned)")
"1000 to 10000 nM"
>>> observed("C[C@@H]1CC[C@@H](c2ccc3cnccc3c2)N(C(=O)C(=O)Nc2cncc(C(N)=O)c2)C1 (single isomer, unassigned)")
"< 1000 nM"
>>> observed("C[C@@H]1CC[C@@H](c2ccc3c(c2)CCC(=O)N3)N(C(=O)C(=O)Nc2cncc(C(N)=O)c2)C1 (single isomer, unassigned)")
"> 10000 nM"
>>> observed("Cc1cc(NC(=O)C(=O)N2C[C@H](C)CC[C@H]2c2ccc3[nH]ccc3c2)cnc1N (single isomer, unassigned)")
"< 1000 nM"
>>> observed("C[C@H]1CC[C@H](c2ccc(O)cc2)N(C(=O)C(=O)Nc2cncc(C(N)=O)c2)C1 (single isomer, unassigned)")
"< 1000 nM"

###

# Tested on: HAP1 MTAP-intact cell line
# PROTOCOL DETAILS: SDMA in-cell western assay, HAP1 MTAP-intact
# Format: cell-based
# CONDITIONS USED: SDMA in-cell western, HAP1 MTAP-intact; read-out: MTAP HAP1 intact IC50
pIC50: −log10 of the molar value.
READOUT: pIC50

>>> observed("CC(=O)N1CCC(c2cccc(C3CCCCN3C(=O)C(=O)Nc3cncc(C)c3)c2)CC1 (single isomer, unassigned) [Compound 78]")
"< 6.00"
>>> observed("Cc1cc(NC(=O)C(=O)N2CC(C)(C)CCC2c2ccccc2)cnc1N (single isomer, unassigned) [Compound 58]")
"< 6.00"
